This section presents molecules with their documented melting point values.

Reference set, count: 4
>>> value_observed("C[C@]12CC[C@H]3[C@@H](CC=C4NC(=O)CC[C@@]43C)[C@@H]1CC[C@@H]2C(=O)/C=C/c1ccco1")
"260 to 261 °C"
>>> value_observed("CC(=O)[C@H]1CCC2C3CCC(=O)[C@](C)(CCC(=O)O)C3CC[C@@]21C (some centres unmarked)")
"168 to 169 °C"
>>> value_observed("Cc1ccc(/C=C/C(=O)[C@H]2CC[C@H]3[C@@H]4CC=C5NC(=O)CC[C@]5(C)[C@H]4CC[C@]23C)cc1")
"191 to 193 °C"
>>> value_observed("COc1ccc(/C=C/C(=O)[C@H]2CC[C@H]3[C@@H]4CC=C5NC(=O)CC[C@]5(C)[C@H]4CC[C@]23C)cc1")
"280 to 282 °C"

# input for lookup
Query string: Fill in the blank: the reported melting point of `Cc1ccc(/C=C/C(=O)[C@H]2CC[C@H]3[C@@H]4CC=C5NC(=O)CC[C@]5(C)[C@H]4CC[C@]23C)o1` is ____.
Result string: 200 to 203 °C

---

# System: NHDF cells (Normal Human Dermal Fibroblasts)
# experiment: MTT cell proliferation assay, NHDF
# Format: cell-based
# recorded-conditions: Homo sapiens, 72 h, MTT
This section presents molecules with their documented IC50 values.
The reply must contain the numeric value and, after it, the unit.

Reference set, count: 3
>>> value_observed("O=c1[nH]cc(F)c(=O)[nH]1 [Compound 5-FU, 5-fluorouracil, reference compound]")
"29.4 µM"
>>> value_observed("C[C@]12CC[C@H]3[C@@H](CC=C4NC(=O)CC[C@@]43C)[C@@H]1CC[C@@H]2C(=O)/C=C/c1cccnc1")
"3.09 µM"
>>> value_observed("C[C@]12CC[C@H]3[C@@H](CC=C4NC(=O)CC[C@@]43C)[C@@H]1CC[C@@H]2C(=O)/C=C/c1ccc([N+](=O)[O-])cc1")
"6.94 µM"

# input for lookup
Query string: Fill in the blank: the reported IC50 of `C[C@]12CC[C@H]3[C@@H](CC=C4NC(=O)CC[C@@]43C)[C@@H]1CC[C@@H]2C(=O)/C=C/c1ccccc1` is ____.
Result string: 64 µM

---

# System: LNCaP cells
# experiment: MTT cell proliferation assay, LNCaP
# Format: cell-based, human
# recorded-conditions: 30 µM, 72 h, average ± SD
quantity-measured: MTT screening, cell proliferation

Query string: Fill in the blank: the reported MTT screening, cell proliferation of `C[C@]12CC[C@H]3[C@@H](CC=C4NC(=O)CC[C@@]43C)[C@@H]1CC[C@@H]2C(=O)/C=C/c1ccc([N+](=O)[O-])cc1` is ____.
Result string: 5.2 ± 2.6 percentage of negative control

---

This section presents compounds with their documented IC50 values.
# System: T47-D cells
# experiment: MTT cell proliferation assay, T47-D
# Format: cell-based, human
# recorded-conditions: Homo sapiens, T47D, 72 h, MTT
Write the value in µM as a bare number.

Reference set, count: 4
>>> value_observed("O=c1[nH]cc(F)c(=O)[nH]1 [Compound 5-FU, 5-fluorouracil, reference compound]")
0.7
>>> value_observed("C[C@]12CC[C@H]3[C@@H](CC=C4NC(=O)CC[C@@]43C)[C@@H]1CC[C@@H]2C(=O)/C=C/c1ccccc1")
16.9
>>> value_observed("Cc1ccc(/C=C/C(=O)[C@H]2CC[C@H]3[C@@H]4CC=C5NC(=O)CC[C@]5(C)[C@H]4CC[C@]23C)cc1")
45
>>> value_observed("C[C@]12CC[C@H]3[C@@H](CC=C4NC(=O)CC[C@@]43C)[C@@H]1CC[C@@H]2C(=O)/C=C/c1cccnc1")
1.33

Query string: Fill in the blank: the reported IC50 of `C[C@]12CC[C@H]3[C@@H](CC=C4NC(=O)CC[C@@]43C)[C@@H]1CC[C@@H]2C(=O)/C=C/c1ccc([N+](=O)[O-])cc1` is ____.
Result string: 6.56
